Data provenance is the supplement of paper PMC9112550.

Tested on: Escherichia coli TOP10
test-method-notes: shrunken log2 fold change of peptide-encoding DNA abundance (4.5 h post-induction vs induction); higher = less antimicrobial activity (less host growth inhibition)
applied-conditions: time post-induction: 4.5 h; library: site-saturation at positions 5, 18, 19, 20
Decision: shrunken log2 fold change >= -0.1 yields Y, all other cases yield N.

[[record]]
macromolecule_sequence = "RRIRVRPPRLPRPRPRPFYYPRP"
discrete_label = "N"

[[record]]
macromolecule_sequence = "RRIRCRPPRLPRPRPRPKRCPRP"
discrete_label = "Y"

[[record]]
macromolecule_sequence = "RRIRYRPPRLPRPRPRPNDYPRP"
discrete_label = "Y"

[[record]]
macromolecule_sequence = "RRIRLRPPRLPRPRPRPYLCPRP"
discrete_label = "Y"

[[record]]
macromolecule_sequence = "RRIRCRPPRLPRPRPRPSKFPRP"
discrete_label = "N"

[[record]]
macromolecule_sequence = "RRIRHRPPRLPRPRPRPPFMPRP"
discrete_label = "Y"

[[record]]
macromolecule_sequence = "RRIRNRPPRLPRPRPRPKRKPRP"
discrete_label = "Y"

[[record]]
macromolecule_sequence = "RRIRNRPPRLPRPRPRPKVGPRP"
discrete_label = "Y"

[[record]]
macromolecule_sequence = "RRIRMRPPRLPRPRPRPIGHPRP"
discrete_label = "Y"


###

Test system: Escherichia coli TOP10
test-method-notes: shrunken log2 fold change of peptide-encoding DNA abundance (4.5 h post-induction vs induction); higher = less antimicrobial activity (less host growth inhibition)
applied-conditions: time post-induction: 4.5 h; library: site-saturation at positions 5, 18, 19, 20
Quick reference: shrunken log2 fold change of the listed items.
endpoint-name: shrunken log2 fold change

[[record]]
macromolecule_sequence = "RRIRARPPRLPRPRPRPCNCPRP"
value_observed = 0.00702

[[record]]
macromolecule_sequence = "RRIRQRPPRLPRPRPRPSDIPRP"
value_observed = -0.0397

[[record]]
macromolecule_sequence = "RRIRVRPPRLPRPRPRPWYMPRP"
value_observed = -0.132

[[record]]
macromolecule_sequence = "RRIRLRPPRLPRPRPRPVRNPRP"
value_observed = 0.0234


###

System: Escherichia coli TOP10
test-method-notes: shrunken log2 fold change of peptide-encoding DNA abundance (4.5 h post-induction vs induction); higher = less antimicrobial activity (less host growth inhibition)
applied-conditions: time post-induction: 4.5 h; library: site-saturation at positions 5, 18, 19, 20
endpoint-name: shrunken log2 fold change

[[record]]
macromolecule_sequence = "RRIRRRPPRLPRPRPRPSIAPRP"
target_or_system = "Escherichia coli TOP10"
value_observed = 0.238

[[record]]
macromolecule_sequence = "RRIRLRPPRLPRPRPRPVFWPRP"
target_or_system = "Escherichia coli TOP10"
value_observed = 0.247

[[record]]
macromolecule_sequence = "RRIRNRPPRLPRPRPRPLLNPRP"
target_or_system = "Escherichia coli TOP10"
value_observed = -0.443


###

System: Escherichia coli TOP10;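 further: peptides expressed intracellularly from a pBAD plasmid library in pooled LB shake-flask culture, induced with 0.3% L-arabinose, DNA abundance read by NGS, three biological replicates, DESeq2 with apeglm shrinkage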
test-method-notes: shrunken log2 fold change of peptide-encoding DNA abundance (4.5 h post-induction vs induction); higher = less antimicrobial activity (less host growth inhibition)
applied-conditions: time post-induction: 4.5 h; library: site-saturation at positions 5, 18, 19, 20
Decision: shrunken log2 fold change >= 0.002 yields TRUE, all other cases yield FALSE.

[[record]]
macromolecule_sequence = "RRIRRRPPRLPRPRPRPTLKPRP"
discrete_label = "TRUE"

[[record]]
macromolecule_sequence = "RRIRYRPPRLPRPRPRPYNHPRP"
discrete_label = "FALSE"

[[record]]
macromolecule_sequence = "RRIRRRPPRLPRPRPRPGTVPRP"
discrete_label = "TRUE"

[[record]]
macromolecule_sequence = "RRIRFRPPRLPRPRPRPFPKPRP"
discrete_label = "FALSE"

[[record]]
macromolecule_sequence = "RRIRIRPPRLPRPRPRPQHWPRP"
discrete_label = "TRUE"

[[record]]
macromolecule_sequence = "RRIRSRPPRLPRPRPRPLSHPRP"
discrete_label = "FALSE"

[[record]]
macromolecule_sequence = "RRIRDRPPRLPRPRPRPQNCPRP"
discrete_label = "TRUE"

[[record]]
macromolecule_sequence = "RRIRDRPPRLPRPRPRPYIKPRP"
discrete_label = "FALSE"

[[record]]
macromolecule_sequence = "RRIRVRPPRLPRPRPRPHYHPRP"
discrete_label = "FALSE"

[[record]]
macromolecule_sequence = "RRIRIRPPRLPRPRPRPWMKPRP"
discrete_label = "FALSE"

[[record]]
macromolecule_sequence = "RRIRTRPPRLPRPRPRPNQTPRP"
discrete_label = "FALSE"

[[record]]
macromolecule_sequence = "RRIRYRPPRLPRPRPRPHSHPRP"
discrete_label = "FALSE"

[[record]]
macromolecule_sequence = "RRIRRRPPRLPRPRPRPLLDPRP"
discrete_label = "TRUE"

[[record]]
macromolecule_sequence = "RRIRHRPPRLPRPRPRPLDRPRP"
discrete_label = "FALSE"

